# ED50 values compiled below
Tested on: mice
assay.text: Test A: acetic acid mouse writhing test (analgesic effects)
Type: in vivo, male CD-1 mice
protocol.conditions: Mus musculus, sc, subcutaneous, 15 min before acetic acid, dose reducing writhes by 50%, read-out: ED50 (Test A, acetic acid mouse writhing test)
Counter-ions that a name gives are not always drawn.
readout.type: ED50 (mg/kg)

- molecule: "COc1ccc2c(c1)[C@]13CCN(CC4CCC4)[C@H](C2)[C@]1(OC)[C@H](C)CC(=O)C3.Cl [TR-5219]"
  observed.result: 15.1
- molecule: "COc1ccc2c(c1)[C@]13CCN(CC4CCCO4)[C@H](C2)[C@]1(OC)[C@H](C)CC(=O)C3.Cl (stereo partly shown) [TR-5327]"
  observed.result: 1.85
- molecule: "CO[C@@]12CCC(=O)C[C@@]13CCN(CC1CC1)[C@@H]2Cc1ccc(O)cc13.Cl [TR-5325]"
  observed.result: 0.45
- molecule: "COc1ccc2c(c1)[C@]13CCN(CC4CCC4)[C@H](C2)[C@]1(OC)CCC(=O)C3 [TR-5296, Hydrochloride]"
  observed.result: 0.77
